For each of the molecules below, state its inhibition at 10 µM.
- Tested on: HL-60(TB)
- Assay Overview: NCI one-dose SRB assay (Leukemia)
- Assay type: cell-based, human
- Cond: Homo sapiens, 10 μM, read-out: Percentage growth inhibition (GI%)
Numbers only, in %.

These solved cases illustrate the format of a correct answer.
{"Molecule": "COc1ccc(-c2ccc(NC(=O)Nc3cccc(C(F)(F)F)c3)c(C)n2)cc1OC", "Measurement Units": "%", "inhibition at 10 µM": 39}
{"Molecule": "COc1ccc(NC(=O)Nc2ccc(-c3ccc(OC)c(OC)c3)nc2C)cc1", "Measurement Units": "%", "inhibition at 10 µM": 15}
{"Molecule": "COc1ccc(-c2ccc(NC(=O)Nc3ccc(Cl)cc3)c(C)n2)cc1", "Measurement Units": "%", "inhibition at 10 µM": 21}
{"Molecule": "COc1ccc(-c2ccc(NC(=O)Nc3ccc(Cl)c(C(F)(F)F)c3)c(C)n2)cc1", "Measurement Units": "%", "inhibition at 10 µM": 68}

Quick one: give me inhibition at 10 µM for each item below, same order please.
1. COc1cccc(NC(=O)Nc2ccc(-c3ccc(OC)c(OC)c3)nc2C)c1
2. COc1ccc(-c2ccc(NC(=O)Nc3cccc(C(F)(F)F)c3)c(C)n2)cc1
3. COc1ccc(-c2ccc(NC(=O)Nc3cccc(Cl)c3)c(C)n2)cc1OC

Reply:
[27, 51, 37]
